assay: folding stability dG unfold (combined trypsin and chymotrypsin); higher = more stable
Provide the recorded folding stability dG unfold for the entries that follow.

Give the measured folding stability dG unfold for SAGGSAGGSAGMVITLPNGEKVEITFDKENKKITITFPDGKKVEIEIEGMSLEEILKALKSAGGSAGGSAGG [r11_729_TrROS_Hall]
3.59 kcal/mol

Tell us which folding stability dG unfold value is on record for SAGGKKKKVVIKLPSTNKAVEAELVSVKKGKNKYYLEIKLPNGKKYKFPLEVIGDFKWDEGEGTLEVPSAGG [r13_211_TrMRF]
2.66 kcal/mol

// Input: SLKPGEWVMFMFTIPITIRITKDDLPPGWKIKEVTIRIYVMFLFRVDPDGNFKILSFNIMIEIEVKYEPDSA [r9_747_TrROS] . Output its folding stability dG unfold only.
4.98 kcal/mol

Entry SAGGSAPPLTEVTLTEVSTDPETGTTTLTLEASGPVESVPLEFPDGRSVKAERLPDGTLVVTNPGASAGGSA [r15_736_JUSTAS] needs its folding stability dG unfold filled in; supply it.
< -1 kcal/mol

Look up folding stability dG unfold of SAGGSAGGSAGPYVVTIELPSGERIEVAVPAERLEEHVEELKPLVEPARITVRPVAPDALSAGGSAGGSAGG [r11_103_TrMRF] and report it.
0.376 kcal/mol

Please look at this sequence and report its folding stability dG unfold: SAGGSAGGSAGEPGFTVRVLKKDLPTGEFSEVEIEVPASVPLEEVIEALDPDQVVAVEVESAGGSAGGSAGG [r11_386_TrMRF]
< -1 kcal/mol

Return folding stability dG unfold (reported value) for this sequence: SAGSITLVFKTPEELEEALKKLAEELGLSEEEVEALKKELEEKFTITYDEETGYVTITLKPELSEEELKSAG [r5_717_TrROS_Hall]
3.44 kcal/mol
